- target_under_test: Human immunodeficiency virus type 1 protease (Human immunodeficiency virus 1, UniProt Q72874)
Could you please mark TRUE for values of IC50 below 3 nM and FALSE for values at or above it?

Here are 10 compounds together with their reported answers.
1. Cc1ccc(C(=O)N[C@@H](Cc2ccccc2)[C@H](O)C(=O)N2C[C@@H](Cl)C[C@H]2C(=O)NC(C)(C)C)c(C)c1O : FALSE
2. CC(C)(C)NC(=O)[C@@H]1C[C@H](Cl)CN1C(=O)[C@@H](O)[C@H](Cc1ccccc1)NC(=O)c1ccccc1N : FALSE
3. Cc1ccc(C(=O)N[C@@H](Cc2cccc(C(F)(F)F)c2)[C@H](O)C(=O)N2C[C@@H](Cl)C[C@H]2C(=O)NC(C)(C)C)c(C)c1O : FALSE
4. CC(C)(C)NC(=O)[C@@H]1C[C@H](Cl)CN1C(=O)[C@@H](O)[C@H](Cc1ccccc1)NC(=O)c1cccc(O)c1Br : TRUE
5. Cc1c(O)cc(F)cc1C(=O)N[C@@H](Cc1ccc2ccccc2c1)[C@H](O)C(=O)N1C[C@@H](Cl)C[C@H]1C(=O)NC(C)(C)C : TRUE
6. Cc1cc(O)c(C)c(C(=O)N[C@@H](Cc2ccc(-c3ccccc3)cc2)[C@H](O)C(=O)N2C[C@@H](Cl)C[C@H]2C(=O)NC(C)(C)C)c1 : TRUE
7. Cc1ccc(O)c(C)c1C(=O)N[C@@H](Cc1ccc2ccccc2c1)[C@H](O)C(=O)N1C[C@@H](Cl)C[C@H]1C(=O)NC(C)(C)C : TRUE
8. Cc1ccc(C(=O)N[C@@H](Cc2ccc(C(F)(F)F)cc2)[C@H](O)C(=O)N2C[C@@H](Cl)C[C@H]2C(=O)NC(C)(C)C)c(C)c1O : FALSE
9. Cc1cc(O)c(C)c(C(=O)N[C@@H](Cc2cccc(C(F)(F)F)c2)[C@H](O)C(=O)N2C[C@@H](Cl)C[C@H]2C(=O)NC(C)(C)C)c1 : TRUE
10. Cc1cc(O)c(C)c(C(=O)N[C@@H](Cc2cc(F)cc(F)c2)[C@H](O)C(=O)N2C[C@@H](Cl)C[C@H]2C(=O)NC(C)(C)C)c1 : TRUE

[in] Please state whether IC50 is below 3 nM for Cc1cc(O)c(C)c(C(=O)N[C@@H](Cc2ccc3ccccc3c2)[C@H](O)C(=O)N2C[C@@H](Cl)C[C@H]2C(=O)NC(C)(C)C)c1
[out] TRUE

[in] Next: Cc1c(O)cc(F)cc1C(=O)N[C@@H](Cc1cccc(C(F)(F)F)c1)[C@H](O)C(=O)N1C[C@@H](Cl)C[C@H]1C(=O)NC(C)(C)C
[out] TRUE

[in] Next: Cc1ccc(O)c(C)c1C(=O)N[C@@H](Cc1cccc(C(F)(F)F)c1)[C@H](O)C(=O)N1C[C@@H](Cl)C[C@H]1C(=O)NC(C)(C)C
[out] FALSE
